Tgt: CA XII (Homo sapiens, UniProt O43570)
Sequence (O43570 30-291 limits assumed): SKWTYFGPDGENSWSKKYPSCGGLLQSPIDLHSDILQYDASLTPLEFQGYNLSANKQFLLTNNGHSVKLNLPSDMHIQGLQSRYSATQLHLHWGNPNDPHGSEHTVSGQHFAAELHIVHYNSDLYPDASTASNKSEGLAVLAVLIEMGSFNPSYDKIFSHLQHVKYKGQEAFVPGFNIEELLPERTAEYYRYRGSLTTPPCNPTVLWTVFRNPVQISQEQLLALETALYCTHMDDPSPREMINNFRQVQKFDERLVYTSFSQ
Measurement notes: Fluorescent thermal shift assay (TSA), CA XII
Type: binding
Run parameters: 37° C., pH 7.0, read-out: Dissociation constants Kd to CA XII (converted)
Measured property: Kd (nM)

Some entries whose results are on file:
The reported value for CC(C)Nc1c(F)c(SCCc2ccccc2)c(F)c(F)c1S(N)(=O)=O [Compound 3a] in terms of Kd is 2900

Kd in this record for COc1cccc(OC)c1CNc1c(F)c(S(N)(=O)=O)c(F)c(F)c1S(=O)(=O)CCO [Compound 10d] : 66.7

A. COc1ccc(CNc2c(F)c(S(N)(=O)=O)c(F)c(F)c2S(=O)(=O)CCc2ccccc2)cc1OC [Compound 9i]
B. CC(Nc1c(F)c(SCCc2ccccc2)c(F)c(F)c1S(N)(=O)=O)c1ccccc1 (centres unmarked) [Compound 3d]
Which record would sort first by descending Kd, A or B ? State the label of the item chosen.
B

I. NS(=O)(=O)c1c(F)c(F)c(S(=O)(=O)CCc2ccccc2)c(NCCc2ccccc2)c1F [Compound 9d]
II. COc1ccc(CNc2c(F)c(S(N)(=O)=O)c(F)c(F)c2S(=O)(=O)CCO)cc1OC [Compound 10e]
III. COc1cccc(OC)c1CNc1c(F)c(S(N)(=O)=O)c(F)c(F)c1S(=O)(=O)CCc1ccccc1 [Compound 9h]
IV. NS(=O)(=O)c1c(F)c(F)c(S(=O)(=O)CCc2ccccc2)c(NC23CC4CC(CC(C4)C2)C3)c1F [Compound 9j]
Ascending by Kd, please. Put the labels in the requested order and write them down.
IV, I, II, III
